- Assay method text: clinical
- Condition notes: both, human, in vivo, iv, t1/2
Measure: half-life (h)
One number for each entry, in h.

(Q) Requested field: half-life. Item: NC(=O)CC[C@@H]1NC(=O)[C@H](Cc2ccccc2)NC(=O)[C@H](Cc2ccc(O)cc2)NC(=O)CCSSC[C@@H](C(=O)N2CCC[C@H]2C(=O)N[C@H](CCCN=C(N)N)C(=O)NCC(N)=O)NC(=O)[C@H](CC(N)=O)NC1=O
(A) 3.1

* * *

- Assay method text: in vivo
- Condition notes: hairless, guinea pig, 82 ug
Measure: AUC

(Q) Requested field: AUC. Item: NC(=O)CC[C@@H]1NC(=O)[C@H](Cc2ccccc2)NC(=O)[C@H](Cc2ccc(O)cc2)NC(=O)CCSSC[C@@H](C(=O)N2CCC[C@H]2C(=O)N[C@H](CCCN=C(N)N)C(=O)NCC(N)=O)NC(=O)[C@H](CC(N)=O)NC1=O
(A) 76 ng·h/mL
